src = PubChem BioAssay (NCATS)

experiment-description: KB-3-1 Cancer Cell Toxicity qHTS against the NCATS CANVASS Library (AID 1347366); also: nearly all actives have a fitted effect of over 75% in size; also: potency is read from the fitted curve at half-maximal effect
study-conditions: KB-3-1 viability, CellTiter-Glo luminescence, 72 h; series mostly up to 46.1 µM
Results filed as inconclusive are left out. Active and inactive are the calls of the source. Calls follow the shape of the dose curve; as a rule, active = well fitted cell-killing curve with a large enough effect; inconclusive = small, poorly fitted or top-dose-only effect; inactive = flat fitted curve, though single readings scatter.
measure-name: Potency

Some entries whose results are on file:
• C[C@]12CC(O)C3[C@@H](CCC4C[C@@H](O)CC[C@@]43CO)[C@@]1(O)CC[C@@H]2C1=CC(=O)OC1 (some centres undefined) = 26.4 µM (active)
• CO[C@@H](/C=C/CC/C=C/C(=O)O)[C@@H](O)[C@H](C)/C=C(\C)[C@H](O)[C@H](C)C(=O)CCCC1CC(=O)NC(=O)C1 = inactive
• C1=C2CCCN[C@H]2C2CC1[C@H]1CCCCN1C2 (some centres undefined) = inactive
• O[C@H]1C=C[C@@]23CCN(Cc4cc5c(cc42)OCO5)[C@@H]3C1 = inactive
• C[N+](C)(C)CCc1c[nH]c2ccccc12 = inactive

(Q) For the compound shown here, CC[C@@H]1CN2CCC3(Nc4cccc(OC)c4C3=O)[C@@H]2C[C@@H]1/C(=C\OC)C(=O)OC (some centres undefined) , give the reported Potency.
(A) inactive

(Q) # get_value(readout='Potency', item= CCCC[C@@H](C)/C=C1/CN2CCC[C@H]2[C@@](C)(O)[C@@H]1O )
(A) inactive

(Q) Please report the recorded Potency for C[C@]12CCC3[C@@H](CC[C@@H]4C[C@@H](O)CC[C@]34CO)[C@@]1(O)CC[C@@H]2C1=CC(=O)OC1 (some centres undefined) .
(A) 1.32 µM (active)

(Q) Param item = CC[C@]12C=CCN3CC[C@]4(C(=C(C(=O)OC)C1)Nc1ccccc14)[C@@H]32 ; retrieve measured Potency.
(A) inactive
